Tested on: T-box riboswitch antiterminator RNA (Bacillus subtilis)
Assay: Binding affinity to 5'TAMRA antiterminator C11U RNA (unknown origin) assessed as structural changes by fluorescence-monitored ligand binding assay relative to bulge deletion AM
Activity calls are given as the source filed them. The calls are words filed in the database; no cut-off is given here.
The reply should name one outcome from active, inactive

Here's what some known entries look like.
compound	subject_of_test	group_label
CC(=O)c1ccc(NC(=O)OC[C@H]2OC(=O)N3CCc4c(-c5ccccc5)nnn4C[C@H]23)cc1	T-box riboswitch antiterminator RNA (Bacillus subtilis)	active
CC(=O)c1ccc(NC(=O)OC[C@@H]2OC(=O)N3CCc4c(-c5ccccc5)nnn4C[C@@H]23)cc1	T-box riboswitch antiterminator RNA (Bacillus subtilis)	active
O=C(Cc1ccccc1)OC[C@@H]1OC(=O)N2CCc3c(-c4ccccc4)nnn3C[C@@H]12	T-box riboswitch antiterminator RNA (Bacillus subtilis)	active

Now for a further compound.
Enquiry: Status in this test for O=C(Cc1ccccc1)OC[C@H]1OC(=O)N2CCc3c(-c4ccccc4)nnn3C[C@H]12 ?
Return: inactive

====

Assay: Effect on HEX-antiterminator RNA-DABCYL (unknown origin) thermal stability at 100 uM by measuring fluorescence by AriaMx Real-Time PCR system
Activity calls are given as the source filed them. The rule behind the calls is not given here.

compound	Activity
CC(=O)c1ccc(NC(=O)OC[C@H]2OC(=O)N3CCc4c(-c5ccccc5)nnn4C[C@H]23)cc1	inactive
O=C(Cc1ccccc1)OC[C@@H]1OC(=O)N2CCc3c(-c4ccccc4)nnn3C[C@@H]12	inactive
O=C(Cc1ccccc1)OC[C@H]1OC(=O)N2CCc3c(-c4ccccc4)nnn3C[C@H]12	inactive
CC(=O)c1ccc(NC(=O)OC[C@@H]2OC(=O)N3CCc4c(-c5ccccc5)nnn4C[C@@H]23)cc1	inactive
